# abundance fitness annotations
B1: Transcription intermediary factor 1-beta, residues 620 to 671; numbered along this chain, Q13263 (parent)
chain: TLDDSATICRVCQKPGDLVMCNQCEFCFHLDCHLPALQDVPGEEWSCSLCHV

Variants of: B1
ASSAY_NAME: abundance fitness (aPCA) (normalised: wild type 0, dead -1); higher = more abundant; growth selection in yeast, the domain comes from the species named
CONDITION_DESCRIPTION: Homo sapiens
QUANTITY: abundance fitness

# RESIDUE_CHANGE, QUANTITY, NUMERIC_RESULT
records = [
    ("D3S", "abundance fitness", -0.223),
    ("D17P", "abundance fitness", -0.604),
    ("Q23H", "abundance fitness", -0.486),
    ("Q13L", "abundance fitness", -0.084),
    ("R10H", "abundance fitness", 0.136),
    ("P15C", "abundance fitness", -0.646),
    ("D39S", "abundance fitness", -0.227),
    ("A6L", "abundance fitness", -0.202),
    ("V11I", "abundance fitness", -0.064),
    ("S48Y", "abundance fitness", -0.094),
    ("P41W", "abundance fitness", -0.258),
    ("D4A", "abundance fitness", -0.141),
    ("F28I", "abundance fitness", -0.016),
    ("H29P", "abundance fitness", -1.34),
    ("D31W", "abundance fitness", -0.921),
    ("H33S", "abundance fitness", 0.012),
    ("C21E", "abundance fitness", -0.434),
]

Ref: the Human Domainome abundance scans (Beltran et al. 2025)
